Reference for the values: patent US6802882B2

# Test system: nitrification
# Assay Explanation: Nitrification inhibiting effect of different pyrazoles
# Design: concentration or dose not given beside the values
# Particulars: column head 1
Readout: % inhibition per applied amount of ammonium

[[record]]
compound = "Cc1cn(CO)nc1C [N-hydroxyl-3,4-DMP, N-hydroxymethyl-3,4-dimethylpyrazole]"
study_system = "nitrification"
observed_measurement = "85%"

[[record]]
compound = "Cc1[nH]ncc1Cl.O=P(O)(O)O [4-Chloro-3-methylpyrazole phosphate]"
study_system = "nitrification"
observed_measurement = "91%"

[[record]]
compound = "Cc1c[nH]nc1C"
study_system = "nitrification"
observed_measurement = "88%"

[[record]]
compound = "Cc1nn(CO)cc1Cl [N-hydroxy-4Cl-3MP]"
study_system = "nitrification"
observed_measurement = "87%"

[[record]]
compound = "Cc1n[nH]cc1Cl"
study_system = "nitrification"
observed_measurement = "88%"

[[record]]
compound = "Cc1cc[nH]n1 [3-Methylpyrazole, reference compound]"
study_system = "nitrification"
observed_measurement = "90%"


---

# Test system: nitrification
# Assay Explanation: Nitrification inhibiting effect of different pyrazoles
# Set-up: concentration or dose not given beside the values
# Particulars: column head 6
Readout: % inhibition per applied amount of ammonium (%)

[[record]]
compound = "Cc1c[nH]nc1C"
study_system = "nitrification"
observed_measurement = 34

[[record]]
compound = "Cc1[nH]ncc1Cl.O=P(O)(O)O [4-Chloro-3-methylpyrazole phosphate]"
study_system = "nitrification"
observed_measurement = 45

[[record]]
compound = "Cc1n[nH]cc1Cl"
study_system = "nitrification"
observed_measurement = 32

[[record]]
compound = "Cc1cn(CO)nc1C [N-hydroxyl-3,4-DMP, N-hydroxymethyl-3,4-dimethylpyrazole]"
study_system = "nitrification"
observed_measurement = 31

[[record]]
compound = "Cc1cc[nH]n1 [3-Methylpyrazole, reference compound]"
study_system = "nitrification"
observed_measurement = 27

[[record]]
compound = "Cc1nn(CO)cc1Cl [N-hydroxy-4Cl-3MP]"
study_system = "nitrification"
observed_measurement = 30


---

# Assay Explanation: Storage stability rapid test of treated inorganic fertilizers (loss of nitrification inhibitor)
# Assay type: physicochemical
# Particulars: on ammonium sulfate nitrate carrier fertilizer; 4 weeks at 30° C., 40 to 50% relative atmospheric humidity, approx. 1.2 m/s air velocity
Readout: Loss in percent (loss of nitrification inhibitor during storage) (%)

[[record]]
compound = "Cc1n[nH]cc1Cl"
unit_of_measurement = "%"
observed_measurement = 100

[[record]]
compound = "Cc1cn[nH]c1C.O=P(O)(O)O [3,4-Dimethylpyrazole phosphate]"
unit_of_measurement = "%"
observed_measurement = 31

[[record]]
compound = "Cc1cc[nH]n1 [3-Methylpyrazole, reference compound]"
unit_of_measurement = "%"
observed_measurement = 100

[[record]]
compound = "Cc1c[nH]nc1C"
unit_of_measurement = "%"
observed_measurement = 100

[[record]]
compound = "Cc1cc[nH]n1.O=P(O)(O)O [3-Methylpyrazole phosphate, reference compound]"
unit_of_measurement = "%"
observed_measurement = 55

[[record]]
compound = "Cc1[nH]ncc1Cl.O=P(O)(O)O [4-Chloro-3-methylpyrazole phosphate]"
unit_of_measurement = "%"
observed_measurement = 92

